B1: GAGE1 (parent)
chain: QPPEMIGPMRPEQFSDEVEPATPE

Variants of: B1
Assay: protein stability index of a GFP-peptide fusion (GPS, HEK-293T) (PSI 1-6); higher = more stable;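 also: lentivirally expressed fusions sorted by FACS into six bins by GFP to DsRed ratio, PSI derived from sequencing read proportions per bin multiplied by bin number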
Details: c terminus: a fixed tail appended
Classify as follows. Reported protein stability index greater than or equal to 5: 1. Reported protein stability index below: -1.

Field: example entries. Status: answers known.
INSERT INTO assay_data (seq_text, label) VALUES
  ('QPPEMIGQMRPEQFSDEVEPATPE', 1),
  ('QPPEMIGPMRPEQFSWEVEPATPE', 1),
  ('QPPEMIGPMRPEQFSDEVYPATPE', -1),
  ('QPPEMIGPMRPEQFSDEVVPATPE', -1),
  ('QPPEMIGPMRPEQFHDEVEPATPE', -1);

// query Quick check: does WPPEMIGPMRPEQFSDEVEPATPE have protein stability index greater than or equal to 5?
// result 1
